Values from paper PMC6100075

# inhibition at 200 µM values compiled below
biological target: murine tyrosinase (Mus musculus); construct: The cells were lysed by vortex and incubated at 4 °C for 1 h to solubilize the tyrosinase enzyme; endogenous in cells; host or cells: B16-F10 melanoma cells (Triton X-100 lysate, dialyzed); assay: Murine tyrosinase inhibitory assay (o-diphenolase activity, crude enzyme from B16-F10 melanoma cells); type: biochemical; conditions: 200 μM; L-DOPA substrate; read-out: Murine Tyrosinase Inhibition, % (at 200 μM);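 also: crude tyrosinase taken from lysed, dialyzed B16-F10 cell extract, with the inhibition reaction incubated for 2 h at 37 °C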
Sequence (P11344 19-533): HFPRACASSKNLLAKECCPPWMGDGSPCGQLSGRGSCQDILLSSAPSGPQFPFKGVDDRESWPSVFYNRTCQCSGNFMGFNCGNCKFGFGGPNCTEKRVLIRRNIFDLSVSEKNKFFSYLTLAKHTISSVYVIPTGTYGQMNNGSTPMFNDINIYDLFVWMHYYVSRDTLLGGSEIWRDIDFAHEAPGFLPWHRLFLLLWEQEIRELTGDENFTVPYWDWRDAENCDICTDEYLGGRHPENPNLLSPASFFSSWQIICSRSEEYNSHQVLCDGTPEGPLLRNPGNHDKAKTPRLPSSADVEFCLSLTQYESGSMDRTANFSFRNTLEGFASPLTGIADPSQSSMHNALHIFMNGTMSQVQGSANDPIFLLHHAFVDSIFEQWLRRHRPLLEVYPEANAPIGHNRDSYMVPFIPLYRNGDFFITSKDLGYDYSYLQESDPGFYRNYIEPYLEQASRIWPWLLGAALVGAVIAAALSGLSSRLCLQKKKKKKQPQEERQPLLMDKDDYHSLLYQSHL

{"MOLECULE": "COc1ccc([C@H]2COc3cc(O)ccc3C2=O)c(OC)c1 [Compound 14, (3S)-Sativanone]", "inhibition at 200 µM [%]": 9.5}
{"MOLECULE": "COc1ccc([C@@H]2COc3cc(O)ccc3C2)c(O)c1 [Compound 19, (3R)-Vestitol]", "inhibition at 200 µM [%]": 12.4}
{"MOLECULE": "COc1cc2c(cc1O)[C@@H]1COc3cc(O)ccc3[C@@H]1O2 [Compound 27]", "inhibition at 200 µM [%]": 29.2}
{"MOLECULE": "COc1c(O)cc2occ(-c3ccc(O)cc3)c(=O)c2c1O [Compound 8, Tectorigenin]", "inhibition at 200 µM [%]": 10.2}

----------
Measured viability at 72 h, 15 µM accompanies every entry in the list below.
experiment: Cell viability assay (PrestoBlue resazurin); assay type: cell-based, Mus musculus (mouse); details: mouse, B16-F10 melanoma cells, 15 μM; 72 h; relative to control; read-out: % Cell Viability;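 also: mouse B16-F10 melanoma cells exposed to test samples for 72 h, with viability read as fluorescence of resorufin formed when living cells reduce PrestoBlue resazurin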

{"COMPOUND": "COc1ccc([C@H]2COc3cc(O)cc(O)c3C2=O)c(OC)c1O", "viability at 72 h, 15 µM [%]": 109}
{"COMPOUND": "COc1ccc(-c2coc3cc(O)cc(O)c3c2=O)c(OC)c1O", "viability at 72 h, 15 µM [%]": 93.3}
{"COMPOUND": "COc1ccc([C@H]2COc3c(ccc(O)c3O)C2)c(OC)c1O", "viability at 72 h, 15 µM [%]": 93.5}
{"COMPOUND": "COc1ccc([C@@H]2COc3cc(O)ccc3C2)c(OC)c1O [Compound 20, (3R)(+)-Mucronulatol]", "viability at 72 h, 15 µM [%]": 104}
{"COMPOUND": "COc1cc(O)c(-c2coc3cc(O)cc(O)c3c2=O)cc1O", "viability at 72 h, 15 µM [%]": 95.1}
{"COMPOUND": "COc1cc(-c2coc3cc(O)cc(O)c3c2=O)ccc1O", "viability at 72 h, 15 µM [%]": 107}
{"COMPOUND": "COc1ccc(C2COc3c(ccc(O)c3OC)C2)c(OC)c1O (centres unmarked)", "viability at 72 h, 15 µM [%]": 140}
{"COMPOUND": "COc1ccc(-c2coc3cc(O)ccc3c2=O)cc1O", "viability at 72 h, 15 µM [%]": 99.1}
{"COMPOUND": "COc1ccc(C2COc3c(ccc(O)c3OC)C2)c(O)c1O [Compound 21, (3R,S)-3′-Hydroxy-8-methoxy vestitol]", "viability at 72 h, 15 µM [%]": 103}
{"COMPOUND": "COc1ccc(C2COc3cc(O)ccc3C2=O)c(OC)c1OC (centres unmarked)", "viability at 72 h, 15 µM [%]": 74.2}
{"COMPOUND": "COc1ccc([C@@H]2COc3cc(O)ccc3C2)c(O)c1", "viability at 72 h, 15 µM [%]": 142}
{"COMPOUND": "COc1ccc(C2COc3cc(O)ccc3C2=O)c(O)c1OC (centres unmarked)", "viability at 72 h, 15 µM [%]": 82.3}
{"COMPOUND": "O=c1cc(CO)occ1O [Kojic acid, reference compound]", "viability at 72 h, 15 µM [%]": 98.9}
{"COMPOUND": "COc1ccc(C2COc3cc(O)cc(O)c3C2=O)cc1O (centres unmarked)", "viability at 72 h, 15 µM [%]": 124}
{"COMPOUND": "COc1cc2c(cc1C1COc3cc(O)ccc3C1=O)OCO2 (centres unmarked)", "viability at 72 h, 15 µM [%]": 100}
{"COMPOUND": "COc1cc(OC)c(C2COc3cc(O)ccc3C2=O)cc1O (centres unmarked)", "viability at 72 h, 15 µM [%]": 117}
{"COMPOUND": "O=C1C[C@@H](c2ccc(O)cc2)Oc2cc(O)cc(O)c21", "viability at 72 h, 15 µM [%]": 94.3}
